molecular target: T1, HLA-A*02:01 (human); test: UV peptide exchange ELISA (anti-b2m); yield grade: + >10%, ++ >20%, +++ >50, ++++ >75%
T1 construct: captured on streptavidin plates; also called peptide-receptive MHC molecules
metric: peptide exchange yield

Please look up its peptide exchange yield: LLSEIEEHL > 75%

New cases:
Quick one: peptide exchange yield of LLEPFVHQV ? > 75%

Moving on to VLMEMSYRL 50 to 75%

Another binder to look at: LMDETMKEL > 75%
